What RP-LC retention time was measured for each of the following?
# experimentSummary: gradient 5% acetonitrile 3 min, to 50% in 2 min, to 85% in 15 min, held 3 min, 100 µL/min
# particulars: column: Zorbax Extend-C18 2.1 x 50 mm; eluents: water / acetonitrile, 0.1% formic acid
Answer format reminder: number followed by unit.

Past entries and their recorded results:
{"compound": "NC(=O)C(=O)c1cn(Cc2ccccc2)c2ccccc12", "RP-LC retention time": "872 s"}
{"compound": "Cc1nc(-c2ccc(Cl)cc2)oc1COC(C)(C)C(=O)O", "RP-LC retention time": "909 s"}
{"compound": "CCC(C)NC(=O)CSc1nc(N2CCc3ccccc3C2)nc2ccccc12 (stereo not given)", "RP-LC retention time": "795 s"}
{"compound": "Cc1cc(-c2nn3c(C4CCCCC4)nnc3s2)c2ccccc2n1", "RP-LC retention time": "949 s"}
{"compound": "COc1ccc(NC(=O)N2CCN(Cc3nc4cc(Cl)ccc4o3)CC2)cc1OC", "RP-LC retention time": "686 s"}

Record RP-LC retention time per entry; entries follow.
1. Cc1sc2ccn(C)c(=O)c2c1C(=O)NCc1cc(F)ccc1F
2. CCOc1ccccc1NC(=O)Cn1cnc2c(sc3nc(-c4ccccc4)ccc32)c1=O
3. O=C(c1ccccn1)N1CCCCC1c1nc(-c2cnccn2)no1 (stereo not given)
4. CNS(=O)(=O)c1ccc(C(=O)N2CCc3ccccc3C2)o1
5. COc1ccc(C(=O)NC2(c3nc(-c4ccncc4)no3)CCCCC2)cc1OC

Result:
1. 781 s
2. 1110 s
3. 637 s
4. 724 s
5. 827 s

---

# experimentSummary: gradient 5% acetonitrile 3 min, to 50% in 2 min, to 85% in 15 min, held 3 min, 100 µL/min
# particulars: column: Zorbax Extend-C18 2.1 x 50 mm; eluents: water / acetonitrile, 0.1% formic acid
RP-LC retention time vs 800 s: less than gives rule met; not less than gives rule not met.

The following molecules have reported results that may help.
{"molecule": "CC(C(=O)Nc1nc2ccc(S(C)(=O)=O)cc2s1)n1nnc2ccccc2c1=O (centres undefined)", "className": "rule met"}
{"molecule": "Cc1ccc(Nc2nc(C)cc(N3CCN(C(=O)c4ccc(Br)o4)CC3)n2)cc1", "className": "rule met"}
{"molecule": "CC(=O)N1CCc2sc(S(=O)(=O)N3CCN(c4cc(C)ccc4C)CC3)cc2C1", "className": "rule not met"}

Q: Check if RP-LC retention time falls below 800 s for Cc1ccc(-c2noc(CN3N=NC4C(=O)N(c5ccc(C(C)C)cc5)C(=O)C43)n2)cc1 (centres undefined) .
Result: rule not met

Q: Is it true that RP-LC retention time reported for Cc1cc(C(=O)Nc2ccc(N3CCOCC3)cc2)nc2cc(-c3ccsc3)nn12 is less than 800 s?
Result: rule not met

Q: Field: below-cutoff. Rule: recorded RP-LC retention time strictly less than 800 s. Subject: CS(=O)(=O)N1CCC(OC2CCN(C(=O)Nc3ccccc3)CC2)CC1
Result: rule met

Q: Determine whether this molecule shows RP-LC retention time lower than 800 s (ties excluded): CCOc1cccc(CNc2nc3ccncc3n(C(C)C)c2=O)c1
Result: rule met

Q: I wonder whether Cc1ccc(S(=O)(=O)N2CCC(C(=O)NCc3csc(-c4ccccc4)n3)CC2)c(C)c1 has RP-LC retention time below 800 s. Can you tell?
Result: rule not met

---

# experimentSummary: gradient 5% acetonitrile 3 min, to 50% in 2 min, to 85% in 15 min, held 3 min, 100 µL/min
# particulars: column: Zorbax Extend-C18 2.1 x 50 mm; eluents: water / acetonitrile, 0.1% formic acid
// label = t if RP-LC retention time is not less than 800 s, otherwise f

Examples with answers:
{"molecule": "CCc1cccc(NC(=O)N2c3ccccc3CC2c2nc(CCOC)no2)c1 (stereo not given)", "className": "t"}
{"molecule": "COc1cc2c(cc1OC)[C@@H](C(=O)Nc1ccc(F)cc1)[C@@H]1CCCCN1C2=O", "className": "f"}
{"molecule": "COc1nn(C)cc1C(=O)NCc1cc(-c2ccco2)on1", "className": "f"}
{"molecule": "CCn1c(C(=O)NCCCN2CCCC(C)C2)cc2cc(S(=O)(=O)N(C)C)ccc21 (stereo not given)", "className": "f"}
{"molecule": "Cn1ccc2cc(S(=O)(=O)N3CCCC(C(=O)NC4CCCCCCC4)C3)ccc21 (stereo not given)", "className": "t"}
{"molecule": "CC1CCN(c2ccc(-c3cccc(N)c3)nn2)CC1", "className": "f"}
{"molecule": "CCCNC(=O)Cn1c(CNC(C)=O)nc2ccccc21", "className": "f"}
{"molecule": "O=C(Nc1ccccc1C(F)(F)F)N1CCC(N2CCN(Cc3ccc(F)cc3)C(=O)C2=O)CC1", "className": "f"}
{"molecule": "Cc1ccc(CNC(=O)Cn2cnc3c(sc4nc(-c5ccccc5)ccc43)c2=O)cc1", "className": "t"}
{"molecule": "O=C(C1CCN(c2cnn(Cc3ccccc3)c(=O)c2)CC1)N1CCCCCC1", "className": "f"}

Q: Tell me whether RP-LC retention time is at least 800 s here: O=C(NCC1CCCO1)c1cc2cccnc2n(Cc2ccccc2F)c1=O (stereo not given)
Result: t

Q: For this molecule, is measured RP-LC retention time 800 s or higher? COCCCNC(=O)c1cc(-c2ccccc2)nc2n[nH]c(-c3ccccc3)c12
Result: f

Q: Could you verify whether the entry CCN(CC)C(=O)c1ccc2c(c1)nnn2CCNC(=O)NC(C)(C)C shows RP-LC retention time of no less than 800 s?
Result: f

---

# experimentSummary: gradient 5% acetonitrile 3 min, to 50% in 2 min, to 85% in 15 min, held 3 min, 100 µL/min
# particulars: column: Zorbax Extend-C18 2.1 x 50 mm; eluents: water / acetonitrile, 0.1% formic acid
For each entry below, report its RP-LC retention time value.
Answers are plain numbers, in s.

Example compounds with recorded RP-LC retention time:
{"compound": "CCc1cc(=O)n(CC(=O)Nc2ccc(Cl)cc2)c(N)n1", "unit": "s", "RP-LC retention time": 618}
{"compound": "Nc1ncnc(N2CCN(c3ccc(Cl)c(Cl)c3)CC2)c1[N+](=O)[O-]", "unit": "s", "RP-LC retention time": 909}

For each of the compounds below, note its RP-LC retention time.
1. CCN1CCN(c2c(C(=O)c3ccccc3)cnc3cc4c(cc23)OCO4)CC1
2. COc1ccc(Br)cc1CNC(=O)c1ccc2c(c1)NC(=O)C1CCCCN21 (stereo unspecified)
3. CCOC(=O)C1=C(CN2CC(C)CC(C)C2)NC(=O)NC1c1ccc(Cl)cc1 (stereo unspecified)
4. O=C(NCCc1csc(C2CCCN(C(=O)C3(c4ccccc4)CC3)C2)n1)C1CC1 (stereo unspecified)
5. COc1ccc(CC(=O)NCc2c(C)cc(C)nc2-c2ccc(OC)cc2)cc1
6. CCc1ccc(NS(=O)(=O)c2ccc3c(c2)CCCC(=O)N3)cc1
7. Cc1nnc2n1CCC(N(C)C(=O)c1cc(C3CC3)[nH]n1)CC2 (stereo unspecified)

Result:
1. 563
2. 884
3. 688
4. 762
5. 708
6. 794
7. 530

State recorded RP-LC retention time for all listed compounds.
1. CCn1c(=O)c(C(=O)N2CCCC2)nc2ccccc21
2. O=C(NC1CC1)c1cccnc1N1CCSCC1
3. CCN1C(=O)c2cccnc2Sc2cc(NC(=O)Cc3ccc(F)cc3)ccc21
4. CCCN1C(=O)COc2ccc(-c3noc(CCc4c[nH]c5ccccc45)n3)cc21
5. COc1cc(NC(=O)c2cn(-c3cc(N4CCC(C)CC4)ncn3)cn2)cc(OC)c1
6. COc1ccc(C2(C(N)=O)CC2)cc1
7. CCOCCCNC(=O)C1CCCN(c2nccnc2Oc2ccc(C)cc2)C1 (stereo unspecified)

Result:
665
623
816
1110
1110
682
926

---

# experimentSummary: gradient 5% acetonitrile 3 min, to 50% in 2 min, to 85% in 15 min, held 3 min, 100 µL/min
# particulars: column: Zorbax Extend-C18 2.1 x 50 mm; eluents: water / acetonitrile, 0.1% formic acid
# RP-LC retention time binned as low range (below 700 s), mid range (700 s to below 900 s), high range (900 s or more)

Some solved cases for reference:
{"itemSmiles": "O=C(NC1CC1)c1ccc(OCC2CCN(C(=O)c3ccccc3C(F)(F)F)CC2)cc1", "className": "mid range"}
{"itemSmiles": "CCc1noc(NC(C)=O)c1-c1ccc(C)c(S(=O)(=O)N2CCN(c3ccccn3)CC2)c1", "className": "low range"}
{"itemSmiles": "O=C(NCCCn1c(C(F)(F)F)nc2cccnc21)Nc1ccccc1", "className": "mid range"}
{"itemSmiles": "COC(=O)c1ccccc1NC(=O)Cn1nc2n(c1=O)CCCCC2", "className": "mid range"}

Q: For Cn1nc(CNC(=O)c2cccc(Cl)c2)c2ccccc21 , which RP-LC retention time bin applies?
Result: high range

Q: For this compound, which bin applies? CCCN(CCC)S(=O)(=O)c1cccc(-c2cn3ccc(C)cc3n2)c1
Result: mid range
